- system under test: Proteasome Macropain subunit MB1 (Homo sapiens)
- Sequence (P28074 whole entry): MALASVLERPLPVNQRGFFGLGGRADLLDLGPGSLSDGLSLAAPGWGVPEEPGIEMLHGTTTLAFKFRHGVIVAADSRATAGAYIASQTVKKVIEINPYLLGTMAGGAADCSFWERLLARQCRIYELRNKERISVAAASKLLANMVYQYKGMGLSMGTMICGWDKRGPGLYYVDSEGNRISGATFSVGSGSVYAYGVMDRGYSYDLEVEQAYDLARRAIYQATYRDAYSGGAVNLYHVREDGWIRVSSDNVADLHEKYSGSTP
- assay details: Inhibition of chymotrypsin-like activity of human 20S proteasome beta 5 subunit using Suc-LLVY-AMC as substrate after 60 mins by fluorescence assay
pIC50: −log10 of the molar value.
measure name: pIC50

// worked examples, pIC50 included
1) C=C[C@H](C[C@@H]1C[C@@H]1NC(=O)[C@@H]1OC(=O)[C@H]1[C@@H](C)CC)NC(=O)[C@H](C)NC(=O)OC(C)(C)C :: 7.11
2) CC[C@H](C)[C@@H]1C(=O)O[C@H]1C(=O)N[C@H]1C[C@H]1C[C@@H](CCc1ccc2ccccc2c1)NC(=O)[C@H](C)NC(=O)OCc1ccccc1 :: 7.54
3) CC[C@H](C)[C@@H]1C(=O)O[C@H]1C(=O)N[C@H]1C[C@H]1C[C@@H](CCc1ccccc1)NC(=O)c1ccc2ccccc2c1 :: 7.48
4) CC[C@H](C)[C@@H]1C(=O)O[C@H]1C(=O)N[C@H]1C[C@H]1C[C@@H](CCc1ccccc1)NC(=O)[C@H](C)NC(=O)OCc1ccccc1 :: 8.24
5) C=C[C@H](C[C@@H]1C[C@@H]1NC(=O)[C@@H]1OC(=O)[C@H]1[C@@H](C)CC)NC(=O)[C@H](C)N :: 6.52
6) CC[C@H](C)[C@@H]1C(=O)O[C@H]1C(=O)N[C@H]1C[C@H]1C[C@H](NC(=O)[C@H](C)N)C(=O)O [BELACTOSIN A] :: 5.84
7) C=C[C@H](C[C@@H]1C[C@@H]1NC(=O)[C@@H]1OC(=O)[C@H]1[C@@H](C)CC)NC(=O)C(C)(C)C :: 6.68
8) CC[C@H](C[C@@H]1C[C@@H]1NC(=O)[C@@H]1OC(=O)[C@H]1[C@@H](C)CC)NC(=O)[C@H](C)NC(=O)OCc1ccccc1 :: 7.42
9) C=C[C@H](C[C@@H]1C[C@@H]1NC(=O)[C@@H]1OC(=O)[C@H]1[C@@H](C)CC)NC(=O)CNC(=O)OCc1ccccc1 :: 7.39
10) CC[C@H](C)[C@@H]1C(=O)O[C@H]1C(=O)N[C@H]1C[C@H]1C[C@@H](Cc1ccccc1)NC(=O)[C@H](C)NC(=O)OCc1ccccc1 :: 7.85

[a] C=C[C@H](C[C@@H]1C[C@@H]1NC(=O)[C@@H]1OC(=O)[C@H]1[C@@H](C)CC)NC(=O)[C@H](C)NC(C)=O
[b] CC[C@H](C)[C@@H]1C(=O)O[C@H]1C(=O)N[C@H]1C[C@H]1C[C@@H](CCc1cccc2ccccc12)NC(=O)[C@H](C)NC(=O)OCc1ccccc1
QUERY: Identify the entry with the larger pIC50. Options: a and b I would appreciate it if you answered with the label of your choice.
RESULT: b

[A] C=C[C@H](C[C@@H]1C[C@@H]1NC(=O)[C@@H]1OC(=O)[C@H]1[C@@H](C)CC)NC(=O)[C@H](C)NC(=O)OCc1ccccc1
[B] C=C[C@H](C[C@@H]1C[C@@H]1NC(=O)[C@@H]1OC(=O)[C@H]1[C@@H](C)CC)NC(=O)C(C)C
[C] C=C[C@H](C[C@@H]1C[C@@H]1NC(=O)[C@@H]1OC(=O)[C@H]1[C@@H](C)CC)NC(=O)[C@H](Cc1c[nH]c2ccccc12)NC(=O)OCc1ccccc1
[D] CC[C@H](C)[C@@H]1C(=O)O[C@H]1C(=O)N[C@H]1C[C@H]1C[C@H](NC(=O)[C@H](C)NC(=O)OCc1ccccc1)c1ccccc1
QUERY: Rank descending by pIC50. Show the ranking through the labels, in the order asked for.
RESULT: C, A, D, B

[A] C=C[C@H](C[C@@H]1C[C@@H]1NC(=O)[C@@H]1OC(=O)[C@H]1[C@@H](C)CC)NC(=O)c1ccc2ccccc2c1
[B] C=C[C@H](C[C@@H]1C[C@@H]1NC(=O)[C@@H]1OC(=O)[C@H]1[C@@H](C)CC)NC(=O)[C@H](C)NC(=O)c1ccc2ccccc2c1
QUERY: I would appreciate it if you could say which entry, A or B , has the lower pIC50 value. I would appreciate it if you answered with the label of your choice.
RESULT: A
